The origin of these recorded values is patent US20260242735A1.

# System: human CD33 S135A (human, UniProt P20138 18-364)
# Sequence (P20138 18-364 S135A limits assumed): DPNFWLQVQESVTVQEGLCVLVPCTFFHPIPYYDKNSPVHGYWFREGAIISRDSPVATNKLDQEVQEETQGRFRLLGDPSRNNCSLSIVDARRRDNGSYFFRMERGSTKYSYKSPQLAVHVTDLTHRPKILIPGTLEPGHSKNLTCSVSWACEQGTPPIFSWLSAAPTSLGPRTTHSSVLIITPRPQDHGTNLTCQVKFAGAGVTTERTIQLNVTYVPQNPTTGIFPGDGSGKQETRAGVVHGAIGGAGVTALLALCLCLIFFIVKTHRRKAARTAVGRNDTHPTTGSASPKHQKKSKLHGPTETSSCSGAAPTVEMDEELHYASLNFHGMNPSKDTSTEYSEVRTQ
# Measurement description: flow cytometry on HEK293-T, alanine scan
Property label: Mean % WT Binding
# answer = value followed by unit

Measured Mean % WT Binding, Refmab #3 (antibody, V domains shown, The alanine scan used IgG or Fab) VH: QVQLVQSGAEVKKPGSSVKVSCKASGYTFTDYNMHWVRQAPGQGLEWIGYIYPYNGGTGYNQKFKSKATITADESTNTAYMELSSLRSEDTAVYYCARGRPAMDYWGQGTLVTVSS VL: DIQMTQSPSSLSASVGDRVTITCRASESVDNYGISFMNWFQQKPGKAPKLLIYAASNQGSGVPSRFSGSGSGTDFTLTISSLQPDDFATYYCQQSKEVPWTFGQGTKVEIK : 107 % WT binding
